IC50 values for MMP-8 (Homo sapiens, UniProt P22894) compiled from several publications are listed below.
assay endpoint: IC50 (nM)

P: Cc1ccc2nnn(C[C@@H]3CC[C@H](C(=O)c4ccc(OCc5cccc(Cl)c5)cc4)[C@H]3C(=O)O)c(=O)c2c1 (racemic)
Q: Cc1ccc2nnn(C[C@H]3CC[C@@H](C(=O)c4ccc(OCc5cccc(OC(F)(F)F)c5)cc4)[C@@H]3C(=O)O)c(=O)c2c1 (single isomer, unassigned)
R: Cc1cccc(C(CS(=O)(=O)c2ccc(OCc3cc(C)nc4ccccc34)cc2)N(O)C=O)c1 (stereo not drawn)
S: CCCCCc1ccc(C(=O)Nc2ccc(S(=O)(=O)N(CCN3CCOCC3)[C@H](Cc3ccccc3)C(=O)NO)cc2)cc1
T: O=C(CC(CCn1nnc2ccccc2c1=O)C(=O)O)c1cc2ccc(OCC3CC3)cc2s1 (racemic)
**Q:** Output the listed items in decreasing order of IC50. Answer format: the labels, ordered as requested.
**A:** R, T, S, Q, P
(R: 59500 nM, T: 460 nM, S: 241 nM, Q: 120 nM, P: 41 nM)
